Listing of recorded PET hydrolysis by entry.
Assay: PET hydrolysis, aromatic products released after 48 h (umol product/mg enzyme); higher = more PET depolymerization activity
Conditions: substrate: cryPow; 60 °C; pH 7.5
Respond with the number and no other words.

### Prompt // lookup PET hydrolysis for LNPYQRGPNPTDAILEASSGPYATSSISVPSIVSGFGGGRIYYPTTTADGTFGGIAISPGFTATWSSLSWLGPRLASHGFVVIGIETNTIYDQPTSRGQQLLAALDYLVNTSSVRTRVDSSRLAVAGHSMGGGGTLWAANSRPSLQAAIPLAPWNTDKSWSGVRVPTLIVGGQSDTVAPVATHSIPFYTSIPAASEKAYLELRSASHFFPQTVNTTVAVSMVSWLKRYVDDDTRYDPWLCPGPSGLSVSDYRDTCPA [TEP178]
### Response 4

### Prompt Consider next the sequence DEIGQAPTSSNITGNGSFSVSTYNISSLVTGFGGGVAYYPSTAGRYPVVAVSPGFTARWSSISWIGPRLASWGFVVVGIETNSVYDQPASRGSQLLAALNWAVNSAPSAITSRADGSRRGVAGHSMGGGGTLEALAADTTGNVKAGVPLAPWNSDKTWNNVNEPVQIIGGESDTVAGVSSHSIPFYNSLGGSKSYVELNGASHFFPQTTNATTSRALVSWFKRWLNQDARFTPFTCGYGGTAVSDFRTNAC [ESM177] in the same way.
### Response 7

### Prompt Consider next the sequence GETAQTTDVSAQSQFQRGPNPTVSSIEARTGHYRTSTTRVSSFASGFGGGTIYYPTTTSDGTFGGVAVAPGYTASSSTMDWLGPRIASQGFVVFVIDTNTRLDQPSSRGRQLLAALDYLTERSSERHRVDSNRLAVMGHSMGGGGALEATISRPSLKASIPLTPWNLTKNWSRVTTPTLIVGAENDSVASVRSHSIPFYTSLSSSTDRMYVELDGASHFAPNVSNTTIAKYSISWLKRFVDDDTRYDQFLCPLPNERAISDIRGNCPR [DP090] in the same way.
### Response 2

### Prompt Consider next the sequence DQIGQAPTASNITGNGSFATTSASISSTVSGFGGGRVYYPTAAGTYPVIAISPGFTATWSSLAWIGPRLSSWGFVVVGIETNSIYDQPASRGNQLLAALNWAVNSSPTAVRSHVDGSRRGVAGHSMGGGGTLEALAADTTGLVKAGVPLAPWNTDKTWNNVSEPVLIVGGQADTVAPVASHSIPFYNTLAGPKTYVELTGQSHFFPQTTNATASRALVAWFKRWVSQDSRFTPFTCGFSGVAVSDFRSNAC [ESM082] in the same way.
### Response 65

----------
Experiment: PET hydrolysis, aromatic products released after 48 h (umol product/mg enzyme); higher = more PET depolymerization activity
Conditions: substrate: cryPow; 60 °C; pH 4.5
value kind: PET hydrolysis

### Prompt // lookup PET hydrolysis for ADNPYQRGPDPTPASVSANRGTFATAQISVPAGNGFGGGVIYHPTDTSQGTFGAIAVVPGYTATWAAEGAWMGHWLASFGFVVIGIDTNSRNDWDTARGTQLLAALDYLTQRSPVRDRVDANRTAVMGHSMGGGGAMHAALQRPSLKAAIGLAPFSPSQNLTTTRVPTMLLAGQSDTTTTPASILNLYNGIPAATEKAYLELTGAGHGFPTSNNPTMMRNVIPWLKIFVDSDTRYTQFLCSLSNWDGIRAYQSTCPLVPSPVPTTTSTTSTTTTISTTTTTPAPGDACSATYRTTNSWPGGYQAEVTVTAGNTAVNGWNVQWTLGSGQTVTQVWNGTLNVSGSTASVRNASYNGSLQANTSTTFGFIGGGTPPTSSLSCTSP [ESM035]
### Response < 3

### Prompt Consider next the sequence ADNPYQRGPDPTRTSVTAVNGPFANTSVSVPTGHGFNGGRIYYPTDTSQGTFGAIAISPGYTALFSAELAWMGPWLASHGFVVIGIETNSRNDFDTARGTQLLAALDYLTQQSPVRDRVDPSRLAVSGHSMGGGGALSAAMRRASLKAVVGITPYSPSSNLANDRVPTMIISGQADTVVTPSYALGLYNSIPATTESVYLEVAGGDHGFMVGRSNPVLVRTMLPFLKMFIDNDTRYSQFLCPLLDNSGVVTYRSTCPLLPTDPTTPPTGTPTPTPTTPAPTTPPPTTPPGSASEIRGTQSNRCIDVPNASRNNGTRVQLYDCNRQTNQAWTYTANKQLQVYGNMC [ESM106] in the same way.
### Response < 3

### Prompt Consider next the sequence ADNPYQRGPDPTRASVAAVNGPFVNTSVSVPTGYGFNGGRIYYPTDTSQGTFGAIAISPGYTALFSAELAWMGPWLASHGFVVIGIETNSRNDFDTARGTQLLAALDYLTQQSPVRDRVDPNRLAVSGHSMGGGGALSAAIRRSSLKAAVGITPYSPSQNLANDRVPTMVISGQADTVVTPSYALGLYNSLPASTESVYLEVAGGDHGFMVGRSNPVLIRTMLPFLKMFVDNDSRYSQFLCPLLDSSGVVTYRSTCPLLPTNPTTPPPTGTPTPTPTSTPTPTPTPTTPPPSGSANE [ESM091] in the same way.
### Response < 3

### Prompt Consider next the sequence AQENPYERGPAPTAQNITEDGPFAYATATVPAQSGFAGGAIYYPTDTSQGTFGAVAAVPGFLTPVDDVAWMGPRLASHGFVVFTIEPNSRFEFPSGRAAALKAGLTYLTQSSAVRDRVDPTRLAVAGHSMGGGAALEAALKDPNLKAAVALQPWHTGVNFSTVNVPSMIVGAENDPIASPASHAEPFYEQIPAASEKAYLNLAGVGHEVGGVVTNDTQSSMMLTWLKRYVDNDTRYEPFMCPGPSGSSVLEYRGTCPG [TEP170] in the same way.
### Response < 3

### Prompt Consider next the sequence CVTPAPPPAPDVATVTVGAGNGFGGGTIYYPQGATGRLPVVAASPGFTENQNAVGWYGPLLAREGNIVITIDTNSPFDSPTSRADQLLAAIDYVVNRSSVASIADGSRTAVMGHSMGGGGSLEAALKRPGLKAIIPLAPWNTTTNFSGVRVPTLIVGCQNDAIAPVGSHAEPFYQSIPATTPKAYLEIAGGDHFCTNSENPTIANYVVAWTDRFLQGDTSASSRLCPPPPAGGSISEYRANCPY [ESM050] in the same way.
### Response 40

----------
Assay: PET hydrolysis, aromatic products released after 48 h (umol product/mg enzyme); higher = more PET depolymerization activity
Details: substrate: cryPow; 60 °C; pH 7.5
value kind: PET hydrolysis

[[record]]
biosequence = "ADNPYQRGPDPTQSSVSASRGTFATAQVGVPAGNGFGGGVIYHPTDTSQGTFGAVAIVPGYTATWAAEGAWMGHWLASFGFVVIGIDTNNRNDWDTARGTQLLAALDYLTQRSSVRDRVDPSRTAVMGHSMGGGGAMYAALQRPSLKTAVGLAPFSPSQNLTTTRVPTMLLSGQNDTTTTPASIVNLYNGIPSSVEKAYLELTGAGHGFPTSNNSTMMRNVIPWLKIFVDSDTRYTQFLCPLSDSNGIRTYQNTCPLVPSPVPTTTSTTSSTSTTTTSTTTTTTTSVPVGACSATYRTTNAWSGGYQGEVTVAAGDSAVNGWTVRWTLDSGQTISQVWNGTLSATGSAVSVRNASYNGSLRPGTSTTFGFIAGGAPSTPVLSCTSP [DP072]"
value_kind = "PET hydrolysis"
endpoint_result = "< 3"


### Prompt // lookup PET hydrolysis for ADNPYQRGPDPTRTSVAAVNGPFANTSVSVPTGYGFNGGRIYYPTDTSQGTFGAIAISPGYTALFSAELAWMGPWLASHGFVVIGIETNSRNDFDTARGTQLLAALDYLTQQSPVRDRVDPNRLAVSGHSMGGGGALSAAIRRSSLKAVVGIAPYSPSSNLANDRVPTMIFSGQADTVVTPSYATGLYNSLPATTESVYLEVAGADHGFMVGRSNPVMIRTMLPFVKMFIDNDTRYSQFLCPLLDSSGVVTYRSTCPLLPPAPTTPPPTGTPTPTPSSNPTTPPTTPPSTPTA [ESM061]
### Response < 3

----------
Test: PET hydrolysis, aromatic products released after 48 h (umol product/mg enzyme); higher = more PET depolymerization activity
Conditions: substrate: cryPow; 40 °C; pH 5.5
Lab note: compare PET hydrolysis against 5. Equal or greater, write y. Smaller, write n.

### Prompt In plain terms: is recorded PET hydrolysis at least 5 for AGNPYQRGPDPTLASVAASRGTFATAQVSVPAGNGFNGGTIYYPTDSSQGTWGAVAIVPGYTALFANEEAWMGPWLASFGFVVIGIETNSRTDFDTARGTQLLAALDYLTQKSPVRDRVDSARLGVIGHSMGGGGVVYATEHRPSLKAAVALAPFSPSQDMSTDHVPTMVMGGQNDTVVTPSYLDGLYATMPASTQSDFVQLAGADHVAYTHPNTTEMRLLIPWLKIFLDDDTRYTQFLCPLMDSTGVSAYHSKCPYVPPGGSTSTPTPTPTITPTPPPSGACSATYRTVNSWSGGYQGEVTVTAGDAAINGWTVRWNLGGGQTVTQVWNGTLSTSGSTATVTNASYNGSLQASASTTFGFLANGTPSTPAITCTSP [TEP114] ?
### Response y

### Prompt Consider next the sequence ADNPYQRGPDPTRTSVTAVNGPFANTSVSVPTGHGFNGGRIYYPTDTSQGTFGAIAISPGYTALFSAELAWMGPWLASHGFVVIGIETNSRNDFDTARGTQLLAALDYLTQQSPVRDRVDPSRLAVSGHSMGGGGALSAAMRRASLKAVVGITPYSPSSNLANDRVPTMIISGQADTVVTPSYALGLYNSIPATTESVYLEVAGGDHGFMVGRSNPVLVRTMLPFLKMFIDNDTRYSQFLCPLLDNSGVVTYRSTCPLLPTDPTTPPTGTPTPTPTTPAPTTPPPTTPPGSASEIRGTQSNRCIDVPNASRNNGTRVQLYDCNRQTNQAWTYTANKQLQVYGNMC [ESM106] in the same way.
### Response y

### Prompt Consider next the sequence APDTVVGNPFARGPDPTKESIEAERGPFAVATEKVPGGKGFGGGTIHYPTDTSQGTFGAIAVAPGFTESESAIAWYGPRLASQGFVVITISTNGLWDLPASRADQLLAALRHVTDASQIKSRVDRDRLAVMGHSMGGGGSLIAARNNPALKATIPLTGWNPNTSFSDLKVPTFVVSAQNDFIAPDGSHSRPFYQSLPASLNKAYMRLAGVGHMAPVNPNVTIAKYSISWLKRFVDNDTRYSQFLCPLPTGDPKIAAYEGTCPLS [DP008] in the same way.
### Response n
